src = the supplement of paper PMC10724198

System: Saccharomyces cerevisiae
run.description: protein stability index of tFT-peptide fusion (C-terminal peptide) (PSI (0-1 scale)); higher = more stable (slower turnover);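 also: PSI is a weighted mean of sequencing reads over stability bins, variants kept only with over 10 reads, mCherry proximal and sfGFP distal, peptide attached via GGGS linker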
measurement.conditions: genetic background: cdc53-1; temperature: 37 C
# binarize protein stability index: threshold 0.4 inclusive, high side true (1), low side false (0)

Prompt: Answer whether protein stability index of "PSPRRPPRSRFP" is greater than or equal to 0.4.
Completion: true (1)

Prompt: Answer whether protein stability index of "FTFLFPLRLLPL" is greater than or equal to 0.4.
Completion: false (0)

Prompt: Answer whether protein stability index of "FILCGFSVVLIG" is greater than or equal to 0.4.
Completion: false (0)

Prompt: Answer whether protein stability index of "SRICRTIIQLKQ" is greater than or equal to 0.4.
Completion: true (1)

Prompt: Answer whether protein stability index of "APLPPPPASVPP" is greater than or equal to 0.4.
Completion: true (1)

Prompt: Answer whether protein stability index of "PAMPTEPKSSSG" is greater than or equal to 0.4.
Completion: true (1)

Prompt: Answer whether protein stability index of "GYRRCCHFLFTL" is greater than or equal to 0.4.
Completion: true (1)

Prompt: Answer whether protein stability index of "VVLVVVWWGGVE" is greater than or equal to 0.4.
Completion: true (1)

Prompt: Answer whether protein stability index of "FLLAIVRGVWLA" is greater than or equal to 0.4.
Completion: false (0)

Prompt: Answer whether protein stability index of "RLFVRIQLSLLF" is greater than or equal to 0.4.
Completion: false (0)

Prompt: Answer whether protein stability index of "LASLSRPFRAKF" is greater than or equal to 0.4.
Completion: true (1)

Prompt: Answer whether protein stability index of "LRMMLLVTIILE" is greater than or equal to 0.4.
Completion: false (0)

Prompt: Answer whether protein stability index of "KVGPVLLLCRRS" is greater than or equal to 0.4.
Completion: true (1)

Prompt: Answer whether protein stability index of "IGILVTAVPVFD" is greater than or equal to 0.4.
Completion: true (1)

Prompt: Answer whether protein stability index of "RGGVRGVRSGRG" is greater than or equal to 0.4.
Completion: true (1)

Prompt: Answer whether protein stability index of "LAGSSSIVVVFG" is greater than or equal to 0.4.
Completion: true (1)

Prompt: Answer whether protein stability index of "FLWLCLLSLFFR" is greater than or equal to 0.4.
Completion: false (0)

Prompt: Answer whether protein stability index of "PSRLSFALLFHL" is greater than or equal to 0.4.
Completion: true (1)

Prompt: Answer whether protein stability index of "FAIRMHCLIFRC" is greater than or equal to 0.4.
Completion: false (0)

###

Tested on: Saccharomyces cerevisiae
run.description: protein stability index of tFT-peptide fusion (C-terminal peptide) (PSI (0-1 scale)); higher = more stable (slower turnover)
measurement.conditions: genetic background: wild type; temperature: 37 C
test.readout: protein stability index

Prompt: Item "FRFYCGLVIANV" with Saccharomyces cerevisiae - protein stability index?
Completion: 0.531

Prompt: Item "FLVFRPPALFLR" with Saccharomyces cerevisiae - protein stability index?
Completion: 0.219

Prompt: Item "TIYGYEVTRKIG" with Saccharomyces cerevisiae - protein stability index?
Completion: 0.145

Prompt: Item "SFSIPILLLAFP" with Saccharomyces cerevisiae - protein stability index?
Completion: 0.372

Prompt: Item "LRVGVRSWGGKW" with Saccharomyces cerevisiae - protein stability index?
Completion: 0.439

Prompt: Item "LWRFFFVAFVGI" with Saccharomyces cerevisiae - protein stability index?
Completion: 0.515

Prompt: Item "SYRFFLFLAVFV" with Saccharomyces cerevisiae - protein stability index?
Completion: 0.538

Prompt: Item "YKLRAVFVCSVT" with Saccharomyces cerevisiae - protein stability index?
Completion: 0.445

Prompt: Item "VWSWFVIYFFFC" with Saccharomyces cerevisiae - protein stability index?
Completion: 0.444

Prompt: Item "PSPYSLSPYFLV" with Saccharomyces cerevisiae - protein stability index?
Completion: 0.49

Prompt: Item "VGFIVCFFFSFG" with Saccharomyces cerevisiae - protein stability index?
Completion: 0.453

Prompt: Item "VFFRCVCCLSVF" with Saccharomyces cerevisiae - protein stability index?
Completion: 0.352

Prompt: Item "ESRRGILFIYIN" with Saccharomyces cerevisiae - protein stability index?
Completion: 0.0749

Prompt: Item "VFLFSWYIFSVF" with Saccharomyces cerevisiae - protein stability index?
Completion: 0.169

Prompt: Item "VLVSVSLRVCMV" with Saccharomyces cerevisiae - protein stability index?
Completion: 0.178

Prompt: Item "EWVWVVFSCVSW" with Saccharomyces cerevisiae - protein stability index?
Completion: 0.432

Prompt: Item "RMTFFGFTVKML" with Saccharomyces cerevisiae - protein stability index?
Completion: 0.537

Prompt: Item "PPVAYVCHLYVT" with Saccharomyces cerevisiae - protein stability index?
Completion: 0.503

Prompt: Item "EFFILYFFLKVL" with Saccharomyces cerevisiae - protein stability index?
Completion: 0.179

Prompt: Item "QWRSWSFATLVT" with Saccharomyces cerevisiae - protein stability index?
Completion: 0.409

Prompt: Item "YCDPSLIWLYLM" with Saccharomyces cerevisiae - protein stability index?
Completion: 0.275

Prompt: Item "WDPKISVFVLID" with Saccharomyces cerevisiae - protein stability index?
Completion: 0.479

Prompt: Item "HPPPTLVPPHPR" with Saccharomyces cerevisiae - protein stability index?
Completion: 0.68

Prompt: Item "LFLTSFRFLRLF" with Saccharomyces cerevisiae - protein stability index?
Completion: 0.134

Prompt: Item "TTGLLPSAYIWS" with Saccharomyces cerevisiae - protein stability index?
Completion: 0.716

Prompt: Item "TGGGGRVSLGVG" with Saccharomyces cerevisiae - protein stability index?
Completion: 0.413

Prompt: Item "SEVMVGLRLTLN" with Saccharomyces cerevisiae - protein stability index?
Completion: 0.545

Prompt: Item "VVFWWGHLLVSA" with Saccharomyces cerevisiae - protein stability index?
Completion: 0.0854

Prompt: Item "GEVLWAVLLVSC" with Saccharomyces cerevisiae - protein stability index?
Completion: 0.3

Prompt: Item "VIGFGEVWIRCV" with Saccharomyces cerevisiae - protein stability index?
Completion: 0.0868

Prompt: Item "GFFCFLYFVVMF" with Saccharomyces cerevisiae - protein stability index?
Completion: 0.277

Prompt: Item "RLCLLLCCRLWL" with Saccharomyces cerevisiae - protein stability index?
Completion: 0.55

Prompt: Item "VSFEFSVLWTVF" with Saccharomyces cerevisiae - protein stability index?
Completion: 0.469

Prompt: Item "VLAYFCYVVFVI" with Saccharomyces cerevisiae - protein stability index?
Completion: 0.354

Prompt: Item "SVFGVRARFGSV" with Saccharomyces cerevisiae - protein stability index?
Completion: 0.774

Prompt: Item "SVLRCPVILLAY" with Saccharomyces cerevisiae - protein stability index?
Completion: 0.0527

Prompt: Item "PPCSLLPPPPAP" with Saccharomyces cerevisiae - protein stability index?
Completion: 0.687

Prompt: Item "VCLVLVVVWWSG" with Saccharomyces cerevisiae - protein stability index?
Completion: 0.313

Prompt: Item "FLVVCGLLSWVW" with Saccharomyces cerevisiae - protein stability index?
Completion: 0.429

Prompt: Item "CRHCFVLLYFDY" with Saccharomyces cerevisiae - protein stability index?
Completion: 0.374

Prompt: Item "VPRGAALIFLCF" with Saccharomyces cerevisiae - protein stability index?
Completion: 0.582

###

Task for the reader: assign each of the following sequences its reported protein stability index.
Test system: Saccharomyces cerevisiae
run.description: protein stability index of tFT-peptide fusion (C-terminal peptide) (PSI (0-1 scale)); higher = more stable (slower turnover)
measurement.conditions: genetic background: wild type; temperature: 30 C

Prompt: Please give the measured protein stability index for this sequence: "PPSSPPSVLPPV"
Completion: 0.666

Prompt: Please give the measured protein stability index for this sequence: "FSPGYPMAFSLR"
Completion: 0.74

Prompt: Please give the measured protein stability index for this sequence: "SASPVAGWLGGP"
Completion: 0.677

Prompt: Please give the measured protein stability index for this sequence: "LGGRNNRQMSSG"
Completion: 0.678

Prompt: Please give the measured protein stability index for this sequence: "HSRRRRPTPQSL"
Completion: 0.571

Prompt: Please give the measured protein stability index for this sequence: "GFVVYLLLSYLF"
Completion: 0.333

Prompt: Please give the measured protein stability index for this sequence: "RVLWGTESFIDL"
Completion: 0.738

Prompt: Please give the measured protein stability index for this sequence: "SSPEYIRNIQRS"
Completion: 0.62

Prompt: Please give the measured protein stability index for this sequence: "LRLLCRTRCYRS"
Completion: 0.666

Prompt: Please give the measured protein stability index for this sequence: "SWALELARPGEG"
Completion: 0.718

###

Task for the reader: assign each of the following sequences its reported protein stability index.
Test system: Saccharomyces cerevisiae
run.description: protein stability index of tFT-peptide fusion (C-terminal peptide) (PSI (0-1 scale)); higher = more stable (slower turnover)
measurement.conditions: genetic background: wild type; temperature: 30 C
Answer with a number only.

Prompt: Please give the measured protein stability index for this sequence: "GGVGGGRAGVWG"
Completion: 0.681

Prompt: Please give the measured protein stability index for this sequence: "NHVWGSNRCSSC"
Completion: 0.689

Prompt: Please give the measured protein stability index for this sequence: "SSALSLVSSFLP"
Completion: 0.705

Prompt: Please give the measured protein stability index for this sequence: "VGTGVGEGGGVV"
Completion: 0.711

Prompt: Please give the measured protein stability index for this sequence: "LCFLVLLSLLLL"
Completion: 0.528

Prompt: Please give the measured protein stability index for this sequence: "LPLSGIETSVSR"
Completion: 0.683

Prompt: Please give the measured protein stability index for this sequence: "GRVVVKTFRDFF"
Completion: 0.635

Prompt: Please give the measured protein stability index for this sequence: "PIPPDGGSPPSP"
Completion: 0.714

Prompt: Please give the measured protein stability index for this sequence: "GLFFLCLLSMCF"
Completion: 0.384

Prompt: Please give the measured protein stability index for this sequence: "FYGLPSVVCGWF"
Completion: 0.671
